Hey, just so you know, these numbers are from ChEMBL document CHEMBL4330100.

Recorded measurements of IC50, one per entry
System: MCF7
Experiment: Antiproliferative activity against human MCF7 cells assessed as reduction in cell proliferation measured after 5 days by Cell-titer-Glo assay
Assay type: functional, cell-based
Conditions: MCF7, 120 h

Recorded IC50, per entry:
{"Structure smiles": "CC/C(=C(/c1ccc(/C=C/C(=O)O)cc1)c1ccn2nccc2c1)c1ccccc1", "System tested": "MCF7", "Endpoint result": "> 500 nM"}
{"Structure smiles": "CC/C(=C(/c1ccc(/C=C/C(=O)O)cc1)c1ccc2ncsc2c1)c1ccccc1", "System tested": "MCF7", "Endpoint result": "> 500 nM"}
{"Structure smiles": "CC/C(=C(/c1ccc(/C=C/C(=O)O)cc1)c1ccc2sncc2c1)c1ccccc1", "System tested": "MCF7", "Endpoint result": "> 500 nM"}
{"Structure smiles": "CC/C(=C(/c1ccc(/C=C/C(=O)O)cc1)c1ccc2nncn2c1)c1ccccc1", "System tested": "MCF7", "Endpoint result": "> 500 nM"}
{"Structure smiles": "CC/C(=C(/c1ccc(/C=C/C(=O)O)cc1)c1ccc2nnnn2c1)c1ccccc1", "System tested": "MCF7", "Endpoint result": "> 500 nM"}

-- ask I would be grateful if you could share the reported IC50 for CC/C(=C(/c1ccc(/C=C/C(=O)O)cc1)c1ccn2ccnc2c1)c1ccccc1 .
-- reply > 500 nM

-- ask I would be grateful if you could share the reported IC50 for CC/C(=C(/c1ccc(/C=C/C(=O)O)cc1)c1ccc2sc(C)nc2c1)c1ccccc1 .
-- reply > 500 nM

====

Recorded measurements of EC50, one per entry
Target: Estrogen receptor (Homo sapiens, UniProt P03372)
Sequence (P03372 whole entry): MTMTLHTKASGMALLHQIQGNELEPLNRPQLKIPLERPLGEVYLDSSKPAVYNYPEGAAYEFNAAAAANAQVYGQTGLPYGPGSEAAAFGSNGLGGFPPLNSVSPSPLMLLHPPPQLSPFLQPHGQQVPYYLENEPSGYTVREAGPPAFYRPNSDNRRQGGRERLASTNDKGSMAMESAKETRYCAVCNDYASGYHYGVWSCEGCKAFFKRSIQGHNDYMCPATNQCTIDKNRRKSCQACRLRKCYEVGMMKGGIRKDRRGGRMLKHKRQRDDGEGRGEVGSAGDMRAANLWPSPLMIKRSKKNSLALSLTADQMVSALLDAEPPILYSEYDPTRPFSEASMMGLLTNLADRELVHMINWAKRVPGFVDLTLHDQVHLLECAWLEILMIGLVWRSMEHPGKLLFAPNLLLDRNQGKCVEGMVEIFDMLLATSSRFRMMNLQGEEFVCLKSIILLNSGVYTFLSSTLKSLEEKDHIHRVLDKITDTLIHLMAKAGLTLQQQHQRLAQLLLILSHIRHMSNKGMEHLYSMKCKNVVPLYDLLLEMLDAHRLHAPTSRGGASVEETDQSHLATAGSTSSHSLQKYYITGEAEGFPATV
Assay: Induction of ERalpha degradation in human MCF7 cells in phenol red free RPMI medium containing 5% charcoal-stripped FBS incubated for 4 hrs by IRDye 800CW/DRAQ5 dye based in-cell Western assay
API: value field is a number in nM; no unit string.

Recorded EC50, per entry:
{"Structure smiles": "COc1ccc(/C(=C(\\c2ccc(/C=C/C(=O)O)cc2)c2ccc3nccn3c2)C2CCC2)c(Cl)c1", "Endpoint result": 0.3}
{"Structure smiles": "CC/C(=C(/c1ccc(/C=C/C(=O)O)cc1)c1ccc2ccccc2c1)c1ccccc1", "Endpoint result": 57}
{"Structure smiles": "CC/C(=C(/c1ccc(/C=C/C(=O)O)cc1)c1ccc(-c2cc[nH]n2)cc1)c1ccccc1", "Endpoint result": 99}
{"Structure smiles": "N#Cc1ccc(/C(=C(\\c2ccc(/C=C/C(=O)O)cc2)c2ccc(-c3cn[nH]c3)cc2)C2CCC2)c(Cl)c1", "Endpoint result": 0.7}
{"Structure smiles": "CC/C(=C(/c1ccc(/C=C/C(=O)O)cc1)c1ccn2nccc2c1)c1ccccc1", "Endpoint result": 350}
{"Structure smiles": "O=C(O)/C=C/c1ccc(/C(=C(\\c2ccc(F)cc2Cl)C2CCC2)c2ccc(-c3cn[nH]c3)cc2)cc1", "Endpoint result": 1.1}
{"Structure smiles": "O=C(O)/C=C/c1ccc(/C(=C(\\c2ccc(C(F)(F)F)cc2Cl)C2CCC2)c2ccc3scnc3c2)cc1", "Endpoint result": 1}
{"Structure smiles": "CC/C(=C(/c1ccc(/C=C/C(=O)O)cc1)c1ccc(-c2cnco2)cc1)c1ccccc1", "Endpoint result": 17}
{"Structure smiles": "CC/C(=C(/c1ccc(/C=C/C(=O)O)cc1)c1ccc2sc(C)nc2c1)c1ccccc1", "Endpoint result": 150}
{"Structure smiles": "O=C(O)/C=C/c1ccc(/C(=C(\\c2ccc(F)cc2Cl)C2CCC2)c2ccc3scnc3c2)cc1", "Endpoint result": 0.7}

-- ask Recorded EC50 for O=C(O)/C=C/c1ccc(/C(=C(\c2ccc(F)cc2Cl)C2CCC2)c2ccc(N3CCOCC3)cc2)cc1 with Estrogen receptor (Homo sapiens, UniProt P03372), please?
-- reply 1.6

-- ask Recorded EC50 for N#Cc1cc(Cl)ccc1/C(=C(\c1ccc(/C=C/C(=O)O)cc1)c1ccc2scnc2c1)C1CCC1 with Estrogen receptor (Homo sapiens, UniProt P03372), please?
-- reply 0.4

-- ask Recorded EC50 for N#Cc1ccc(/C(=C(\c2ccc(/C=C/C(=O)O)cc2)c2ccc3nccn3c2)C2CCC2)c(Cl)c1 with Estrogen receptor (Homo sapiens, UniProt P03372), please?
-- reply 19

-- ask Recorded EC50 for CC/C(=C(/c1ccc(/C=C/C(=O)O)cc1)c1ccc(-c2nccs2)cc1)c1ccccc1 with Estrogen receptor (Homo sapiens, UniProt P03372), please?
-- reply 83

====

Recorded measurements of IC50, one per entry
System: MCF7
Experiment: Antiproliferative activity against human MCF7 cells assessed as reduction in cell proliferation measured after 5 days by Cell-titer-Glo assay
Format: functional, cell-based
Settings: MCF7, 120 h
Express your answer as a number followed by its unit.

{"Structure smiles": "N#Cc1ccc(/C(=C(\\c2ccc(/C=C/C(=O)O)cc2)c2ccc(N3CCOCC3)cc2)C2CCC2)c(Cl)c1", "IC50": "7.5 nM"}
{"Structure smiles": "O=C(O)/C=C/c1ccc(/C(=C(\\c2ccccc2)C2CCC2)c2ccc(-c3cn[nH]c3)cc2)cc1", "IC50": "11 nM"}

Turning to the following molecule.
-- ask I would be grateful if you could share the reported IC50 for N#Cc1ccc(/C(=C(\c2ccc(/C=C/C(=O)O)cc2)c2ccc3nccn3c2)C2CCC2)c(Cl)c1 .
-- reply 15 nM

====

Target: Estrogen receptor (Homo sapiens) (UniProt P03372)
Sequence (whole entry): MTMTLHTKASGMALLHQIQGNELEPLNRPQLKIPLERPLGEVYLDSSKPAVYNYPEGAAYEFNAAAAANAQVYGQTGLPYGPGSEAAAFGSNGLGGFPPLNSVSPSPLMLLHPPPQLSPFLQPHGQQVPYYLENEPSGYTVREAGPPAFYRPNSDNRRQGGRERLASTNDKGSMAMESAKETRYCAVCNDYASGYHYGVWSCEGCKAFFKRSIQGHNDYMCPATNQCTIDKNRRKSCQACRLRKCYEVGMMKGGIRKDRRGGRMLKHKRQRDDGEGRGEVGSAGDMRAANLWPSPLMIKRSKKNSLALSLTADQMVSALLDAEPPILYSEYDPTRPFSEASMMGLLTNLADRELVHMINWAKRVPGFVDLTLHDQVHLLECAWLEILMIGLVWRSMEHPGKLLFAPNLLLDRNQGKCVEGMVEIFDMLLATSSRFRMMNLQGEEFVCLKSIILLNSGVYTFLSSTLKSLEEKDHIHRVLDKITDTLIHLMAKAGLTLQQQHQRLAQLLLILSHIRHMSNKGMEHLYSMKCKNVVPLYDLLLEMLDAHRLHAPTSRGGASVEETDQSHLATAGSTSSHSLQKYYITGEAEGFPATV
Assay: Induction of ERalpha degradation in human MCF7 cells in phenol red free RPMI medium containing 5% charcoal-stripped FBS incubated for 4 hrs by IRDye 800CW/DRAQ5 dye based in-cell Western assay relative to fulvestrant
Recorded measurements of Efficacy, one per entry
API: value field is a number in %; no unit string.

Recorded Efficacy, per entry:
{"Structure smiles": "CC/C(=C(/c1ccc(/C=C/C(=O)O)cc1)c1ccc(-c2cnn(C)c2)cc1)c1ccccc1", "Endpoint result": 92}
{"Structure smiles": "CC/C(=C(/c1ccc(/C=C/C(=O)O)cc1)c1ccc(-c2cncs2)cc1)c1ccccc1", "Endpoint result": 90}

Turning to the following compound.
-- ask I would be grateful if you could share the reported Efficacy for O=C(O)/C=C/c1ccc(/C(=C(\c2ccccc2)C2CCC2)c2ccc3scnc3c2)cc1 .
-- reply 88

====

Target: Estrogen receptor (Homo sapiens, UniProt P03372)
Experiment: Induction of ERalpha degradation in human MCF7 cells in phenol red free RPMI medium containing 5% charcoal-stripped FBS incubated for 4 hrs by IRDye 800CW/DRAQ5 dye based in-cell Western assay
Reported metric: EC50 (nM)
API: value field is a number in nM; no unit string.

Recorded EC50, per entry:
{"Structure smiles": "CC/C(=C(/c1ccc(/C=C/C(=O)O)cc1)c1ccc2c(cnn2C)c1)c1ccc(F)cc1Cl", "EC50 [nM]": 27}
{"Structure smiles": "CC/C(=C(/c1ccc(/C=C/C(=O)O)cc1)c1ccc(-c2cncs2)cc1)c1ccccc1", "EC50 [nM]": 7.4}
{"Structure smiles": "CC/C(=C(/c1ccc(/C=C/C(=O)O)cc1)c1ccc(-n2ccnc2)cc1)c1ccccc1", "EC50 [nM]": 300}

-- ask I would be grateful if you could share the reported EC50 for O=C(O)/C=C/c1ccc(/C(=C(\c2ccc(F)cc2Cl)C2CCC2)c2ccc(-c3cncs3)cc2)cc1 .
-- reply 0.8
